Overview of reported growth across a group of compounds:
# Tested on: BT-549 breast
# test-name: NCI-60 one-dose screen, 48 h (100 = growth as untreated, 0 = no growth, -100 = all killed)
# experimental-setup: 10 µM unless noted
This is part of a sample that, as a whole, favours compounds with a hit. Of some 83,000 tested, about 20% had one in any assay.
Your answer is read as %, so omit the unit and give the number.

Before answering, review these 5 worked examples.
[
  {
    "compound": "COc1ccc(/C=C(/C(=O)N2CCN(c3ccccc3)CC2)c2cc(OC)c(OC)c(OC)c2)cc1N",
    "val": 9.88
  },
  {
    "compound": "COc1ccc(/C(=C\\c2cc(OC)c(OC)c(OC)c2)C(=O)Nc2nc3ccc(Cl)cc3s2)cc1",
    "val": 98.3
  },
  {
    "compound": "CC(C)N=C1CCCC1C(=S)SSC(=S)C1CCCC1=NC(C)C (stereo not given)",
    "val": 82.2
  },
  {
    "compound": "O=C1CC2(O)CSc3nc(=O)cc(n32)N1 (stereo not given)",
    "val": 107
  },
  {
    "compound": "CC[C@H](Nc1nc(C)nc(N)c1C#N)c1nc2cccc(NCc3ccc(C(=O)NO)cc3)c2c(=O)n1-c1ccccc1",
    "val": 36.6
  }
]

Request: Can you look up the measured growth of Cc1ccc2oc(=O)cc(-c3nc4ccc([N+](=O)[O-])cc4[nH]3)c2c1 for me?
Result: 42.4

Request: Can you look up the measured growth of N[C@@H](CO)C(=O)O for me?
Result: 104

Request: Can you look up the measured growth of COc1ccc(C2CC(c3ccc(Nc4ccnc5cc(Cl)ccc45)cc3)=NN2c2ccccc2)cc1 (stereo not given) for me?
Result: 99.8

Request: Can you look up the measured growth of O=C(/C=C/c1ccccc1)n1c(-c2ccccc2)nc2ccccc21 for me?
Result: 112

Request: Can you look up the measured growth of CCCCNCC(O)c1cc2c(Cl)cc(Cl)cc2c2cc(C(F)(F)F)ccc12 (stereo not given) for me?
Result: 11.9

* * *

# Test system: A498 renal
# test-name: NCI-60 one-dose screen, 48 h (100 = growth as untreated, 0 = no growth, -100 = all killed)
# experimental-setup: 10 µM unless noted
This is part of a sample that, as a whole, favours compounds with a hit. Of some 83,000 tested, about 20% had one in any assay.
Overview of reported growth across a group of compounds:
Your answer is read as %, so omit the unit and give the number.

[
  {
    "compound": "COc1ccc(-n2nc(C(=O)NCC(=O)Nc3nc4cc(OC)ccc4s3)c3ccccc3c2=O)cc1",
    "target-system": "A498 renal",
    "display-unit": "%",
    "growth": -2.05
  },
  {
    "compound": "CCC1CCc2nc3sc(C(=O)Nc4cccc(F)c4)c(N)c3cc2C1 (stereo not given)",
    "target-system": "A498 renal",
    "display-unit": "%",
    "growth": 50.5
  },
  {
    "compound": "[O-]/[N+](=C\\c1ccccc1)CC1(O)CCCCC1",
    "target-system": "A498 renal",
    "display-unit": "%",
    "growth": 82.9
  },
  {
    "compound": "CC(=O)OC1Oc2cc(C)c(C)cc2-c2oc(=O)c(-c3cc4ccccc4oc3=O)cc21 (stereo not given)",
    "target-system": "A498 renal",
    "display-unit": "%",
    "growth": 75
  }
]

Request: Can you look up the measured growth of NNC(=O)Cc1ccccc1 for me?
Result: 97.2

Request: Can you look up the measured growth of COc1cc(NC(C)CCCN)c2ncccc2c1Sc1ccc(Cl)cc1 (stereo not given) for me?
Result: 55.9

Request: Can you look up the measured growth of CCOC(=O)C(Nc1ccccc1)C(=O)OCC for me?
Result: 126

Request: Can you look up the measured growth of C#CC[C@@H]1C[C@]2(C)[C@H]3CC[C@@H]4[C@H]5C(C(=C)C)CC[C@]5(C(=O)NCCN(CCN)CCN)CC[C@@]4(C)[C@]3(C)CC[C@H]2C(C)(C)[C@H]1OC(C)=O (stereo not given in full) for me?
Result: 128

Request: Can you look up the measured growth of CSCCC1NC(=O)C(C(C)=Nc2ccccc2)=C1O (stereo not given) for me?
Result: 102

Request: Can you look up the measured growth of COc1ccc(C(=O)/C=C/c2cn(-c3ccccc3)nc2-c2cccc(Nc3ccnc4cc(Cl)ccc34)c2)cc1 for me?
Result: 94.8
